# measuredTarget: Luciferin 4-monooxygenase (Photinus pyralis) (UniProt P08659)
# Sequence (P08659 whole entry, looked up): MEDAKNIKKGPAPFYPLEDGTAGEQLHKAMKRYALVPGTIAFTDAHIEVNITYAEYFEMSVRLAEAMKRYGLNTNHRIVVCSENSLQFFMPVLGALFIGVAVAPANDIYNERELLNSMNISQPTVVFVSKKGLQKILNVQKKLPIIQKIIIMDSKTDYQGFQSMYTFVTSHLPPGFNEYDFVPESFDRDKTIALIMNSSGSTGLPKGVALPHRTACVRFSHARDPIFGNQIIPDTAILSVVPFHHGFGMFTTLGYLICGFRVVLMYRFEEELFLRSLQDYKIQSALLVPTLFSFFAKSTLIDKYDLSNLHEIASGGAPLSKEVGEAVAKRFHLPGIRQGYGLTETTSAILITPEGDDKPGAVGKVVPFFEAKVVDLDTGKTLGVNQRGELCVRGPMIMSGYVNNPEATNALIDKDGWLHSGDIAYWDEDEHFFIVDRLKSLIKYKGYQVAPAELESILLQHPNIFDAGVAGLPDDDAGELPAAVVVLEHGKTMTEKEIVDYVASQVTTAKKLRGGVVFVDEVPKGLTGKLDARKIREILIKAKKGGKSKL
# methodNotes: qHTS profiling assay for firefly luciferase inhibitor/activator using purifed enzyme and Km concentrations of substrates (counterscreen for miR-21 project); also: nearly all actives have a fitted effect of over 55% in size
# conditionInfo: purified FLuc, luminescence inhibition; series mostly up to 57.5 µM
The campaign covered roughly 360,000 compounds. About 25,000 (6.9%) were called active. Not shown: some 9% with an inconclusive outcome. Calls follow the shape of the dose curve; as a rule, active = well fitted inhibition curve with a large enough effect; inconclusive = small, poorly fitted or top-dose-only effect; inactive = flat fitted curve, though single readings scatter. Many of the other results were omitted from the sample, so actives are more common in it than they were.
Tick one outcome: label 1 (active), label 0 (inactive)

Past entries and their recorded results:
compound | class
CN1CCN(S(=O)(=O)c2cccc(C(=O)Nc3sccc3C#N)c2)CC1 | label 0
CC(C)(C)OC(=O)NCCCCCNC(=O)c1[nH]cnc1C(=O)Nc1nccs1 | label 0
COc1cccc(-c2nnc(SCC(=O)N3CCC(C)CC3)o2)c1 | label 0
Nc1c(C(=O)NCc2ccccc2)sc2nc3c(cc12)C(=O)CCC3 | label 0
Cc1cccc(N2CCN(C(=O)c3oc(=O)c4ccccc4c3-c3ccccc3)CC2)c1C | label 0

Prompt line: Returns: the outcome recorded for COC(=O)c1cc2c(N)c(C(=O)c3ccc(Cl)cc3)sc2nc1C(OC)OC in this assay.
Response line: label 0

Prompt line: Check CC1=CC(=C(C#N)c2nc3ccccc3s2)C=C(C)N1c1ccc(F)cc1F too.
Response line: label 1

Prompt line: Param item: CCC(C)NC(=O)c1ccc(NC(=O)CC2SC(N3CCCCC3)=NC2=O)cc1 (configuration not stated)
Response line: label 0

Prompt line: And the next one, Cc1nc2sc(C(=O)c3ccccc3)c(N)c2c2c1CCCC2 ?
Response line: label 1

Prompt line: // next record CCOc1cccc(NC(=O)CC#N)c1
Response line: label 0

Prompt line: Can you handle CCN(CC)C(=O)c1sc2nc(-c3ccccc3)ccc2c1N next?
Response line: label 1

Prompt line: For Cc1ccc(C(=O)N2c3ncnn3C3(CCCCC3)[C@@H]3CCCC[C@@H]32)cc1 then?
Response line: label 0

Prompt line: Input CN(C)c1ccnc2sc3c(=O)n(Cc4ccccc4)cnc3c12
Response line: label 0

Prompt line: Try this compound too: CCOc1ccc(S(=O)(=O)c2cn(Cc3ccc(OC)cc3)c3ccc(F)cc3c2=O)cc1
Response line: label 0

Prompt line: What about this compound? N#C/C(=C(/O)Cc1cccc2ccccc12)c1nc2ccccc2s1
Response line: label 0

Prompt line: And what about the compound CCCS(=O)(=O)c1c(Nc2ccccc2C)sc(C(=O)c2ccccc2)c1N ?
Response line: label 0

Prompt line: Can you check COc1cccc(C(=O)c2sc3nc(-c4ccccc4)cc(C(F)(F)F)c3c2N)c1 next?
Response line: label 0

Prompt line: Now the same for CC(=O)c1sc(N2C(=O)c3oc4ccccc4c(=O)c3C2c2ccc(C)cc2)nc1C (configuration not stated)
Response line: label 0

Prompt line: Now this one: CCOc1ccc(C(=O)Nc2cccc(SC)c2)cc1
Response line: label 1

Prompt line: Consider next the compound CCc1nc2sc(C(=O)O)c(N)c2c2c1CCCC2 in the same way.
Response line: label 0

Prompt line: Next compound: CCOc1ccc(C(=O)Nc2cccc(-c3ccc4nncn4n3)c2)cc1
Response line: label 1

Prompt line: Can you check COc1ccc(C(F)(F)F)cc1NC(=O)c1sc2nc(-c3cccs3)ccc2c1N next?
Response line: label 0

====

# measuredTarget: Luciferin 4-monooxygenase (Photinus pyralis)
# methodNotes: qHTS profiling assay for firefly luciferase inhibitor/activator using purifed enzyme and Km concentrations of substrates (counterscreen for miR-21 project); also: nearly all actives have a fitted effect of over 55% in size; also: potency is read from the fitted curve at half-maximal effect
# conditionInfo: purified FLuc, luminescence inhibition; series mostly up to 57.5 µM
Among all 360,000 compounds or so, about 25,000 (6.9%) were called active. Another 9% or so got no clear call; they are omitted. Shown is part of a subset that was picked to be rich in actives.
measurementType: Potency

molSmiles | Potency
Cc1ccsc1/C=C1\SC(N2CCOCC2)=NC1=O | 10.7 µM (active)
Cc1ccc(C)c(S(=O)(=O)c2nnn3c2nc(N2CCOCC2)c2sccc23)c1 | inactive
Cc1cccc(Cc2c(C)nc3nc(SCc4ccccc4Cl)nn3c2C)c1 | inactive
O=C1N=C(N2CCOCC2)S/C1=C\C=C/c1ccccc1 | 10.7 µM (active)
O=c1[nH]c(N2CCOCC2)nc2ccccc12 | inactive

Kindly consider the entry below.
Prompt line: Record request: Potency value, item O=C1N=C(N2CCOCC2)CS1
Response line: inactive

====

# measuredTarget: Luciferin 4-monooxygenase (Photinus pyralis)
# methodNotes: qHTS profiling assay for firefly luciferase inhibitor/activator using purifed enzyme and Km concentrations of substrates (counterscreen for miR-21 project); also: nearly all actives have a fitted effect of over 55% in size
# conditionInfo: purified FLuc, luminescence inhibition; series mostly up to 57.5 µM
Screen size: about 360,000 compounds; about 25,000 (6.9%) were called active. About 9% were inconclusive and are not listed. Calls come from the whole dose curve; as a rule, active = well fitted inhibition curve with a large enough effect; inconclusive = small, poorly fitted or top-dose-only effect; inactive = flat fitted curve, though single readings scatter. Many of the other results were omitted from the sample, so actives are more common in it than they were.
One label from this list, please: true (active), false (inactive)

// below: answered molecules
molecule | class
CC(=O)Nc1ccc(S(=O)(=O)N2CCN(c3ccc([N+](=O)[O-])c(NCCN4CCOCC4)c3)CC2)cc1 | false
COc1ccc(CCNc2nc3c(-c4cccc(F)c4)nnn3c3ccccc23)cc1OC | false
CCSc1nnc2c(n1)OC(c1ccc(OCC(=O)O)cc1)Nc1ccccc1-2 (stereo not given) | false
O=C(Nc1ccccc1)C1CCN(C(=O)c2ccc(Br)cc2)CC1 | false
COc1cc(C(=O)OCC(=O)NC(C)CCc2ccccc2)cc(OC)c1OC (stereo not given) | false

Prompt line: Look up the recorded call for O=C(c1ccccc1)N1CCN(c2ccc([N+](=O)[O-])c(NCc3ccco3)c2)CC1 in this test.
Response line: false

Prompt line: What do you have for CCN(CC(=O)Nc1ccccc1C(=O)NC1CC1)Cc1cccs1 ?
Response line: false

Prompt line: Moving on to CC(C)(C)c1ccc(C(=O)N2CCC(C(=O)N3CCCCC3)CC2)cc1
Response line: false

Prompt line: Please give the result for CCc1cc2c(cc3c(=O)n(CC(=O)N4CCN(c5cc(Cl)ccc5C)CC4)ncn32)s1 too.
Response line: false

Prompt line: Now consider CCCCSc1nnc2c(n1)OC=Nc1ccccc1-2 .
Response line: true

====

# measuredTarget: Luciferin 4-monooxygenase (Photinus pyralis) (UniProt P08659)
# methodNotes: qHTS profiling assay for firefly luciferase inhibitor/activator using purifed enzyme and Km concentrations of substrates (counterscreen for miR-21 project); also: nearly all actives have a fitted effect of over 55% in size
# conditionInfo: purified FLuc, luminescence inhibition; series mostly up to 57.5 µM
Out of some 360,000 compounds screened, about 25,000 (6.9%) were called active. Inconclusive results (about 9%) are left out. The call rests on the fitted dose curve; in most records, active means well fitted inhibition curve with a large enough effect; inconclusive means small, poorly fitted or top-dose-only effect; inactive means flat fitted curve, though single readings scatter. Only a selection was taken, and actives are over-represented in it overall.
Hi! Could you answer with just one of these? yes (1) (active), no (0) (inactive)

Study these solved cases before continuing.
compound | class
Cc1ccc(C2c3[nH]c4ccccc4c3CCN2C(=O)c2cccc(C)c2)cc1 (configuration not stated) | no (0)
COc1ccc(-c2cc(-c3ccccc3)nc3c2COc2ccc(Cl)cc2-3)cc1 | no (0)
CN(CC#CCC(c1ccccc1)c1ccccc1)C(C)(C)C | no (0)

Prompt line: How was COc1cccc(OC)c1C(=O)Nc1ccc2c(c1)n(C)c(=O)n2C classified in this test?
Response line: no (0)

Prompt line: Could you do the same for CCNC(=O)c1cc2n(n1)CCCN(Cc1ccc(C)cc1)C2=O , please?
Response line: no (0)

Prompt line: Next record, please: Cc1cccc(C(=O)N2CCc3c([nH]c4ccccc34)C2CC(C)C)n1 (configuration not stated)
Response line: yes (1)

Prompt line: Likewise for O=S(=O)(c1ccc(Br)cc1)c1nnn2c1nc(N1CCOCC1)c1sccc12 ?
Response line: no (0)

Prompt line: Please answer likewise for COc1ccc(N=Cc2c(O)[nH]c3ccccc23)cc1OC
Response line: yes (1)

Prompt line: What about Cn1c(=O)n(C)c2cc(C(=O)Nc3ccc(Br)cc3)ccc21 ?
Response line: yes (1)

====

# measuredTarget: Luciferin 4-monooxygenase (Photinus pyralis) (UniProt P08659)
# methodNotes: qHTS profiling assay for firefly luciferase inhibitor/activator using purifed enzyme and Km concentrations of substrates (counterscreen for miR-21 project); also: nearly all actives have a fitted effect of over 55% in size
# conditionInfo: purified FLuc, luminescence inhibition; series mostly up to 57.5 µM
Among all 360,000 compounds or so, about 25,000 (6.9%) were called active. Roughly 9% stayed inconclusive and do not appear here. The call rests on the fitted dose curve; in most records, active means well fitted inhibition curve with a large enough effect; inconclusive means small, poorly fitted or top-dose-only effect; inactive means flat fitted curve, though single readings scatter. Shown is part of a subset that was picked to be rich in actives.
Could you please pick one outcome from this set? active, inactive

The examples below pair each entry with its known result.
compound | measuredTarget | class
CS(=O)(=O)c1ccccc1C(=O)Nc1ccc2sccc2c1 | Luciferin 4-monooxygenase (Photinus pyralis) (UniProt P08659) | inactive
O=C(Nc1ccc(C(F)(F)F)cc1)c1cccc(-n2cnnn2)c1 | Luciferin 4-monooxygenase (Photinus pyralis) (UniProt P08659) | inactive
COc1ccccc1CNC(=O)NCc1noc2ccc(C)cc12 | Luciferin 4-monooxygenase (Photinus pyralis) (UniProt P08659) | inactive

Prompt line: Name the outcome recorded for COc1ccc(NS(=O)(=O)c2cc3c4c(c2)CC(=O)N4CCC3)cc1Cl in the assay.
Response line: inactive

Prompt line: Same lookup for COc1cccc(NC(=O)c2ccc(Cn3cc([N+](=O)[O-])cn3)o2)c1 , please.
Response line: inactive

Prompt line: Now the same for CCc1ccc(CNC(=O)c2ccc(CS(=O)c3ccc(Br)cc3)o2)cc1 (stereo unspecified)
Response line: inactive

Prompt line: Field entry: COc1ccccc1/C=C1\SC(=O)N(CCC(=O)N(C)C2CCS(=O)(=O)C2)C1=O (stereo unspecified)
Response line: active

Prompt line: // repeat for CN(C)c1ccc(/C=N/NC(=O)C(O)c2ccc(Br)cc2)cc1 (stereo unspecified) and report
Response line: inactive

Prompt line: Next entry: Cn1c(=O)c2c(nc(NCCc3ccccc3)n2Cc2ccccc2Br)n(C)c1=O
Response line: inactive

Prompt line: How about this compound: O=C(N/N=C\c1ccc(Br)cc1)c1ccc(Cn2cccn2)o1
Response line: active

Prompt line: Then this compound: CC1CN(C(=O)N2CCC(C(=O)NCc3cccs3)CC2)c2ccccc2O1 (stereo unspecified)
Response line: active

Prompt line: O=C(c1ccc(Cn2cc([N+](=O)[O-])cn2)o1)N1CCCC1 ?
Response line: inactive
